B1: Histone-lysine N-methyltransferase SETD2, residues 2382 to 2430; numbered along this chain, Q9BYW2 (parent)
chain: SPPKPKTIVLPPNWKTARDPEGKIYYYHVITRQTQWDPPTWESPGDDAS

Variants of: B1
assayText: abundance fitness (aPCA) (normalised: wild type 0, dead -1); higher = more abundant; growth selection in yeast, the domain comes from the species named
experimentalParameters: Homo sapiens
Kindly supply the reported abundance fitness values for the records listed here.
Give bare numbers.

Example entries and their recorded answers appear below.
residueChange: P39N
abundance fitness: -0.391

residueChange: D46C
abundance fitness: -0.31

residueChange: K4L
abundance fitness: -0.293

residueChange: L10H
abundance fitness: -0.255

residueChange: P20S
abundance fitness: -0.106

residueChange: N13E
abundance fitness: -0.61

Report abundance fitness for every entry below.
1. E21H
2. E21A

-0.737
-0.126
